molecular target: human ErbB2, full length, on cells (human, UniProt P04626 23-1255); test: cell-based or functional assay
Here, each record is paired with measured N1 % Inhibition @40 µg/ml, BT474 cell proliferation data.
Give just the numeric value; % need not be written.

>  <binder>
monoclonal antibody 1.18.1 (antibody, V domains shown, Fully human IgG (gamma/kappa) from a XenoMouse XM3B-3 hybridoma; constant regions not tied to it) VH: EVQLVESGGGLVKPGGSLRLSCAASGFTFSSYSMNWVRQAPGKGLEWVSSISSSSSYIYYADSVKGRFTISRDNAKNSLYLQMNSLSAEDTAVYSCARGGDGYNYYYFDYWGQGTLVTVSS VL: DIVMTQSPGSLVVSLGERATITCKSSQSVFFRSNNKNCLAWYQQRPGQSPNLLIYWASTRESGVPDRFSGSGSGTDFTLTISSLQAEDVAVYYCQQYFGSPFTFGPGTKVDIK

>  <unit-abbrev>
%

>  <val>
34

$$$$

Req: # query: N1 % Inhibition @40 µg/ml, BT474 cell proliferation of entry monoclonal antibody 1.96 (antibody, V domains shown, Fully human IgG (gamma/kappa) from a XenoMouse XM3B-3 hybridoma; constant regions not tied to it) VH: EVQLVESGGGLVKPGGSLRLSCAASGFTFSSYSMNWVRQAPGKGLEWVSSISSSSSYIYYADSVKGRFTISRDNAKNSLYLQMNSLRAEDTAVYYCARGGDGYNYYYFDYWGQGTLVTVSS VL: DIVMTQSPDSLAVSLGERATITCKSSQSVFFRSNNKNCLAWYQQRPGQPPNLLFYWASTRESGVPDRFSGSGSGTDFTLTISSLQAEDVAVYYCQQYFGSPFTLGPGTKVDIK
Resp: 35
